Biological target: Recombinant ROCK2 (Homo sapiens (Human))
Assay: Lance Ultra Kinase Assay, ROCK2 inhibition
Details: ATP at Km, 30 min pre-incubation, 1 h reaction
property name: IC50
# number then unit; no other words

molecule	IC50
CN(C)Cc1cccc(C(CN)C(=O)Nc2cccc3c(-c4cn[nH]c4)c[nH]c23)c1 (racemic) [Example 78]	16 nM
NCC(C(=O)Nc1cccc2c(-c3cn[nH]c3)c[nH]c12)C1CCOC1 (racemic) [Example 96]	4 nM
CN1CCN(C[C@@H](C(=O)Nc2cccc3c(-c4cn[nH]c4)c[nH]c23)c2ccccc2)CC1 [Example 40]	0.18 nM
COc1cccc(C(CN2CCN(C)CC2)C(=O)Nc2cccc3c(-c4cn[nH]c4)c[nH]c23)c1 (single isomer, unassigned) [Example 35]	0.76 nM
COc1ccc(C(N)C(=O)Nc2cccc3c(-c4cn[nH]c4)c[nH]c23)cc1 (racemic) [Example 104]	0.9 nM
NC[C@H](Cc1ccccc1)C(=O)Nc1cccc2c(-c3cn[nH]c3)c[nH]c12 [Example 54]	0.09 nM

Now look at this entry.
Enquiry: Provide one value: measured IC50 of COc1cccc([C@H](C(=O)Nc2cccc3c(-c4cn[nH]c4)c[nH]c23)C2CCN(C)CC2)c1 (single isomer, unassigned) [Example 30]
Return: 1.1 nM

* * *

Biological target: Recombinant ROCK2 (Homo sapiens (Human), UniProt O75116)
Sequence (O75116 whole entry): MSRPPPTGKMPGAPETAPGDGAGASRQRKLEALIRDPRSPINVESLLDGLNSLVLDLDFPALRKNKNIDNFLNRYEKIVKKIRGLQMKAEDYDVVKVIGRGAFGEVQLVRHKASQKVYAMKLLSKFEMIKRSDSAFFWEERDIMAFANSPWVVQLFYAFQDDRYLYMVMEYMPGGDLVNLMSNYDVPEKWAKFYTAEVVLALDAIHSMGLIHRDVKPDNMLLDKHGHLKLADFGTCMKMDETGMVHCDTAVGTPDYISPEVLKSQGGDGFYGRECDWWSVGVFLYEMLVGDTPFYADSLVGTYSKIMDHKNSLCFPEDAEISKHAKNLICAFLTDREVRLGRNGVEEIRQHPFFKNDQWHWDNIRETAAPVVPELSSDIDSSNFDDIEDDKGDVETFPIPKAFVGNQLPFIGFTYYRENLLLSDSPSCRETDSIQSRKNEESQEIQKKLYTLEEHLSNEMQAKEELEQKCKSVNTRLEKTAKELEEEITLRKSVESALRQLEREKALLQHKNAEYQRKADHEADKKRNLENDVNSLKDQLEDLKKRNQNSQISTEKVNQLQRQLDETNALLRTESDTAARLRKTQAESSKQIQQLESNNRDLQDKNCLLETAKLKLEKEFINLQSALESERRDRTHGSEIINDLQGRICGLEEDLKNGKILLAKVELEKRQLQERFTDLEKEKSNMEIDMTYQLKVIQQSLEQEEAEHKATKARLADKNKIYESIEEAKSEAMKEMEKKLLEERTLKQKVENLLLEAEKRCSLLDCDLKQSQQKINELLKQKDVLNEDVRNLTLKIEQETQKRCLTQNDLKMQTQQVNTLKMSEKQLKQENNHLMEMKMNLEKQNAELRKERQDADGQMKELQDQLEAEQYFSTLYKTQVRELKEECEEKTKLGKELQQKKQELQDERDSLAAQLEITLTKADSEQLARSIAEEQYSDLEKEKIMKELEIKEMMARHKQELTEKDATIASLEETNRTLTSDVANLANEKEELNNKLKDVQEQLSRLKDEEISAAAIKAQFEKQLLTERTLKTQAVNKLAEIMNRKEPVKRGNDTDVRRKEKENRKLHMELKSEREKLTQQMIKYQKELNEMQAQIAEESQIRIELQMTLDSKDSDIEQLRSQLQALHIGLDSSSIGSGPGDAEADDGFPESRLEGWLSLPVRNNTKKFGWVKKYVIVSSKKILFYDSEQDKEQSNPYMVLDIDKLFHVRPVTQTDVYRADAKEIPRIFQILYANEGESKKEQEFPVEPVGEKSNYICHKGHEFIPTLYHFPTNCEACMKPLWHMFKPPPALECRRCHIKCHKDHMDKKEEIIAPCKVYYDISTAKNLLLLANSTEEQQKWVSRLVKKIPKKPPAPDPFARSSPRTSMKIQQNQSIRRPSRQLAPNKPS
Assay: Lance Ultra Kinase Assay, ROCK2 inhibition
Conditions: ATP at Km, 30 min pre-incubation, 1 h reaction
Note to self: IC50 under 0.6 nM means Criterion met, ties and anything higher get Criterion not met.

compound	label class
N[C@@H](C(=O)Nc1cccc2c(-c3cn[nH]c3)c[nH]c12)c1cccnc1 (single isomer, unassigned)	Criterion not met
NCC(C(=O)Nc1cccc2c(-c3cn[nH]c3)c[nH]c12)c1cccnc1 (racemic) [Example 31]	Criterion met
N#Cc1ccc(C(CN)C(=O)Nc2cccc3c(-c4cn[nH]c4)c[nH]c23)cc1 (single isomer, unassigned) [Example 59]	Criterion not met
Cn1ccc(C(CN)C(=O)Nc2cccc3c(-c4cn[nH]c4)c[nH]c23)cc1=O (racemic)	Criterion met
CN1CCN(C(C(=O)Nc2cccc3c(-c4cn[nH]c4)c[nH]c23)c2ccccc2)CC1 (single isomer, unassigned) [Example 47]	Criterion not met
COc1cccc(C(NC(=O)c2cccc3c(-c4cn[nH]c4)c[nH]c23)C2CCN(C)CC2)c1 (single isomer, unassigned) [Example 142]	Criterion not met
COc1cccc(C(CN2CCN(C)CC2)C(=O)Nc2cccc3c(-c4cn[nH]c4)c[nH]c23)c1 (single isomer, unassigned) [Example 36]	Criterion not met
COc1cccc(C(CN)C(=O)Nc2cccc3c(-c4cn[nH]c4)c[nH]c23)c1 (single isomer, unassigned) [Example 17]	Criterion not met

Enquiry: Is the reported IC50 for NCC(C(=O)Nc1cccc2c(-c3cn[nH]c3)c[nH]c12)c1ccc(C(N)=O)cc1 (single isomer, unassigned) [Example 112] strictly below 0.6 nM?
Return: Criterion met

Enquiry: Is the reported IC50 for NCC(C(=O)Nc1cccc2c(-c3cn[nH]c3)c[nH]c12)c1cccnc1 (single isomer, unassigned) [Example 32] strictly below 0.6 nM?
Return: Criterion met

Enquiry: Is the reported IC50 for N#Cc1cccc(C(CN)C(=O)Nc2cccc3c(-c4cn[nH]c4)c[nH]c23)c1 (racemic) [Example 19] strictly below 0.6 nM?
Return: Criterion not met

Enquiry: Is the reported IC50 for N[C@H](C(=O)Nc1cccc2c(-c3cn[nH]c3)c[nH]c12)c1cccnc1 (single isomer, unassigned) strictly below 0.6 nM?
Return: Criterion met

Enquiry: Is the reported IC50 for CC(=O)NCc1ccc(C(CN)C(=O)Nc2cccc3c(-c4cn[nH]c4)c[nH]c23)cc1 (racemic) strictly below 0.6 nM?
Return: Criterion not met

Enquiry: Is the reported IC50 for NCC(C(=O)Nc1cccc2c(-c3cn[nH]c3)c[nH]c12)c1ccc(C(N)=O)cc1 (racemic) [Example 74] strictly below 0.6 nM?
Return: Criterion not met

* * *

Molecular target: Recombinant ROCK2 (Homo sapiens (Human), UniProt O75116)
Assay: Lance Ultra Kinase Assay, ROCK2 inhibition
Type: biochemical
Conditions: ATP at Km, 30 min pre-incubation, 1 h reaction
pIC50: −log10 of the molar value.
Answer label 0 if pIC50 is under 9, and label 1 if it is 9 or more.

Enquiry: Hello, I need to know if NCC(C(=O)Nc1cccc2c(-c3cn[nH]c3)c[nH]c12)c1ccc(CO)cc1 (single isomer, unassigned) [Example 3] has measured pIC50 not below 9. Thanks!
Return: label 1

Enquiry: Hello, I need to know if NCC(C(=O)Nc1cccc2c(-c3cn[nH]c3)c[nH]c12)c1cccc(CO)c1 (racemic) [Example 75] has measured pIC50 not below 9. Thanks!
Return: label 0

Enquiry: Hello, I need to know if NCC(C(=O)Nc1cccc2c(-c3cn[nH]c3)c[nH]c12)C1CCOC1 (racemic) [Example 94] has measured pIC50 not below 9. Thanks!
Return: label 0

Enquiry: Hello, I need to know if CC(=O)Nc1ccc(C(CN)C(=O)Nc2cccc3c(-c4cnn(C(=O)OC(C)(C)C)c4)c[nH]c23)cc1 (racemic) [Example 92] has measured pIC50 not below 9. Thanks!
Return: label 0

Enquiry: Hello, I need to know if COc1cccc(C(CN)NC(=O)c2cccc3c(-c4cn[nH]c4)c[nH]c23)c1 (single isomer, unassigned) [Example 136] has measured pIC50 not below 9. Thanks!
Return: label 1

* * *

Target: Recombinant ROCK2 (Homo sapiens (Human), UniProt O75116)
Test: Lance Ultra Kinase Assay, ROCK2 inhibition
Conditions: ATP at Km, 30 min pre-incubation, 1 h reaction
Note to self: IC50 under 9 nM means true (1), ties and anything higher get false (0).

Record excerpt, results attached:
compound	label class
COc1ccc(C(CN)NC(=O)c2cccc3c(-c4cn[nH]c4)c[nH]c23)cc1 (single isomer, unassigned) [Example 145]	false (0)
N[C@@H](Cc1c[nH]c2ccccc12)C(=O)Nc1cccc2c(-c3cn[nH]c3)c[nH]c12	false (0)
NCC(C(=O)Nc1cccc2c(-c3cn[nH]c3)c[nH]c12)c1cccc(O)c1 (single isomer, unassigned) [Example 64]	true (1)
CN1CCN(CC(C(=O)Nc2cccc3c(-c4cn[nH]c4)c[nH]c23)c2cccnc2)CC1 (single isomer, unassigned) [Example 67]	true (1)
CN(C)C(=O)c1ccc(C(CN)C(=O)Nc2cccc3c(-c4cn[nH]c4)c[nH]c23)cc1 (racemic)	false (0)

Now take the following compound into account.
Enquiry: Is the reported IC50 for `COc1cccc([C@H](N)C(=O)Nc2cccc3c(-c4cn[nH]c4)c[nH]c23)c1` strictly below 9 nM?
Return: true (1)

* * *

// reported pIC50 for each item listed
Target: Recombinant ROCK2 (Homo sapiens (Human), UniProt O75116)
Test: Lance Ultra Kinase Assay, ROCK2 inhibition
Settings: ATP at Km, 30 min pre-incubation, 1 h reaction
As a rule, pIC50 stands for the negative log10 of the concentration, concentration in M.

Here is how some compounds turned out for pIC50.
compound	pIC50
N#Cc1cccc(C(CN)C(=O)Nc2cccc3c(-c4cn[nH]c4)c[nH]c23)c1 (single isomer, unassigned) [Example 20]	8.89
NCC(NC(=O)c1cccc2c(-c3cn[nH]c3)c[nH]c12)c1ccccc1 (racemic)	9.06
NCc1ccc(C(CN)C(=O)Nc2cccc3c(-c4cn[nH]c4)c[nH]c23)cc1 (racemic)	7.49
NCC(C(=O)Nc1cccc2c(-c3cn[nH]c3)c[nH]c12)c1ccc(CO)nc1 (single isomer, unassigned) [Example 60]	9.15
NCc1cccc(C(CN)C(=O)Nc2cccc3c(-c4cn[nH]c4)c[nH]c23)c1 (racemic)	8.10
NCC(C(=O)Nc1cccc2c(-c3cn[nH]c3)c[nH]c12)C1CCOCC1 (single isomer, unassigned) [Example 26]	9.02

Now look at this entry.
Enquiry: Provide one value: measured pIC50 of NCC(C(=O)Nc1cccc2c(-c3cn[nH]c3)c[nH]c12)c1ccc(N)cc1 (racemic)
Return: 9.74

* * *

Target: Recombinant ROCK2 (Homo sapiens (Human))
Assay: Lance Ultra Kinase Assay, ROCK2 inhibition
Conditions: ATP at Km, 30 min pre-incubation, 1 h reaction
property name: IC50 (nM)
Hi! Could you send only the number? It should be in nM, unit omitted.

molecule	property name	value reported
COc1cccc(C(NC(=O)c2cccc3c(-c4cn[nH]c4)c[nH]c23)C2CCN(C)CC2)c1 (single isomer, unassigned) [Example 141]	IC50	163

Enquiry: Look up and report measured IC50 (Recombinant ROCK2 (Homo sapiens (Human))) for the following molecule: Cc1ccc(C(=O)OCc2ccc(C(CN)C(=O)Nc3cccc4c(-c5cn[nH]c5)c[nH]c34)cc2)c(C)c1 (single isomer, unassigned) [Example 5]
Return: 4.3

Enquiry: Look up and report measured IC50 (Recombinant ROCK2 (Homo sapiens (Human))) for the following molecule: CN1CCC(C(C(=O)Nc2cccc3c(-c4cn[nH]c4)c[nH]c23)c2ccccc2)CC1 (racemic) [Example 43]
Return: 0.66

Enquiry: Look up and report measured IC50 (Recombinant ROCK2 (Homo sapiens (Human))) for the following molecule: N#Cc1ccc(C(CN)C(=O)Nc2cccc3c(-c4cn[nH]c4)c[nH]c23)cc1 (single isomer, unassigned) [Example 58]
Return: 48

Enquiry: Look up and report measured IC50 (Recombinant ROCK2 (Homo sapiens (Human))) for the following molecule: COc1cc(C(CN)C(=O)Nc2cccc3c(-c4cn[nH]c4)c[nH]c23)ccc1CO (racemic)
Return: 0.81
